pIC50 data for human collagenase-3 catalytic domain enzyme (MMP13) (Homo sapiens, UniProt P45452) follow.
Numbers only, as −log10 of the molar value.

Kindly give each listed record's pIC50.
1. O=C(NCc1cccnc1)c1ccc2[nH]c(=O)n(Cc3ccccc3)c(=O)c2c1 [Example 5]
2. CCn1c(=O)n(Cc2ccccc2)c(=O)c2cc(C(=O)NCc3ccc4c(c3)OCO4)ccc21 [Example 30]
3. CC(C)Cn1c(=O)n(Cc2ccccc2)c(=O)c2cc(C(=O)NCc3ccc4c(c3)OCO4)ccc21 [Example 32]
4. COc1ccc(Cn2c(=O)[nH]c3ccc(C(=O)NCc4ccc5c(c4)OCO5)cc3c2=O)cc1 [Example 16]
5. COC(=O)c1ccc(Cn2c(=O)c3cc(C(=O)NCc4ccc(OC)cc4)ccc3n(C)c2=O)cc1 [Example 34]

Response line:
[6.71, 8.05, 7.77, 7.38, 7.59]

----------
tgt: human collagenase-3 catalytic domain enzyme (MMP13) (Homo sapiens, UniProt P45452)
attribute.measured: IC50 (nM)
Numbers only, in nM.

• Cn1c(=O)[nH]c(=O)c2cc(C(=O)NCc3ccc4c(c3)OCO4)ccc21 = 3
• O=C(NCc1ccc2c(c1)OCO2)c1ccc2[nH]c(=O)n(Cc3ccncc3)c(=O)c2c1 = 15
• O=C(NCc1ccc2c(c1)OCO2)c1ccc2c(c1)c(=O)n(Cc1ccccc1)c(=O)n2CC1CC1 = 1700
• Cn1c(=O)n(Cc2ccc(C(=O)O)cc2)c(=O)c2cc(C(=O)NCc3ccc(O)cc3)ccc21 = 7
• Cn1c(=O)n(CCc2ccccc2)c(=O)c2cc(C(=O)NCc3ccc4c(c3)OCO4)ccc21 = 2250

Hi! Can you tell me IC50 for each of these molecules?
1. COc1ccc(CNC(=O)c2ccc3[nH]c(=O)n(Cc4ccccc4)c(=O)c3c2)cc1
2. CNC(=O)c1ccc(Cn2c(=O)c3cc(C(=O)NCc4ccc(OC)cc4)ccc3n(C)c2=O)cc1
3. COc1ccc(CNC(=O)c2ccc3c(c2)c(=O)n(Cc2ccccc2)c(=O)n3C)cc1

Response line:
1: 183; 2: 62; 3: 5
